These entries and their values trace back to patent US4365989A.

System: Watergrass (Ethinochloa crusgalli)
assayOverview: Post-emergent herbicidal test, Watergrass
Type: in vivo
conditionDetails: 504 h; post-emergence; 33 micrograms/cm^2; 3 weeks
// NB: equality with 20% counts as not satisfied; only pest or weed control at 33 µg/cm2 strictly below is satisfied

smilesrecord=C=C1SC(SCSC#N)=NC1(CC)CC qualitativelabel="not satisfied"
smilesrecord=CC1(C)N=C(SCSC#N)SC1=C(Cl)Cl qualitativelabel="not satisfied"
smilesrecord=CC1(C)N=C(SCSC#N)SC1=CBr qualitativelabel=satisfied

[in] Dear reviewer, please state whether `CC1(C)N=C(SCSC#N)SC1=CCl` has pest or weed control at 33 µg/cm2 strictly beneath 20%.
[out] satisfied

[in] Dear reviewer, please state whether `CC1(C)N=C(SCSC#N)SC1=CSc1ccc(Cl)cc1` has pest or weed control at 33 µg/cm2 strictly beneath 20%.
[out] satisfied

[in] Dear reviewer, please state whether `C=C1SC(SCSC#N)=NC12CCCCC2` has pest or weed control at 33 µg/cm2 strictly beneath 20%.
[out] not satisfied

[in] Dear reviewer, please state whether `CCC1(CC)N=C(SCSC#N)SC1=CBr` has pest or weed control at 33 µg/cm2 strictly beneath 20%.
[out] not satisfied

[in] Dear reviewer, please state whether `C=C1SC(SCSC#N)=NC1(C)C` has pest or weed control at 33 µg/cm2 strictly beneath 20%.
[out] not satisfied

---

Test system: Crabgrass (Digitaria sanguinalis)
assayOverview: Post-emergent herbicidal test, Crabgrass
Format: in vivo
conditionDetails: 504 h, post-emergence, 33 micrograms/cm^2, 3 weeks
Each entry below lists one item and its recorded pest or weed control at 33 µg/cm2 value.
Answer with a number only, understood to be in %.

smilesrecord=CC1(C)N=C(SCSC#N)SC1=CSc1ccc(Cl)cc1 studysystem="Crabgrass (Digitaria sanguinalis)" measurementname="pest or weed control at 33 µg/cm2" observedvalue=0
smilesrecord=C=C1SC(SCSC#N)=NC1(CC)CC studysystem="Crabgrass (Digitaria sanguinalis)" measurementname="pest or weed control at 33 µg/cm2" observedvalue=45
smilesrecord=CC1(C)N=C(SCSC#N)SC1=CCl studysystem="Crabgrass (Digitaria sanguinalis)" measurementname="pest or weed control at 33 µg/cm2" observedvalue=0

# context switch: different compound, same pest or weed control at 33 µg/cm2
The compound `CC1(C)N=C(SCSC#N)SC1=CBr` , tested on Crabgrass (Digitaria sanguinalis), showed pest or weed control at 33 µg/cm2 of 0

---

Each entry below lists one item and its recorded pest or weed control at 33 µg/cm2 value.
Test system: Mustard (Brassica arvensis)
assayOverview: Pre-emergent herbicidal test, Mustard
Format: in vivo
conditionDetails: 504 h, pre-emergence, 33 micrograms/cm^2, 3 weeks
Please state the number and follow it with the unit.

compound="C=C1SC(SCSC#N)=NC12CCCCC2 [Compound 8]" studysystem="Mustard (Brassica arvensis)" measurementname="pest or weed control at 33 µg/cm2" observedvalue=0%
compound="C=C1SC(SCSC#N)=NC1(CC)CC [Compound 6]" studysystem="Mustard (Brassica arvensis)" measurementname="pest or weed control at 33 µg/cm2" observedvalue=58%
compound="CC1(C)N=C(SCSC#N)SC1=C(Cl)Cl [Compound 2]" studysystem="Mustard (Brassica arvensis)" measurementname="pest or weed control at 33 µg/cm2" observedvalue=0%
compound="CCC1(CC)N=C(SCSC#N)SC1=CBr [Compound 5]" studysystem="Mustard (Brassica arvensis)" measurementname="pest or weed control at 33 µg/cm2" observedvalue=0%

The compound listed as C=C1SC(SCSC#N)=NC1(C)C [Compound 7] shows pest or weed control at 33 µg/cm2 equal to 0%

The compound listed as CC1(C)N=C(SCSC#N)SC1=CBr [Compound 4] shows pest or weed control at 33 µg/cm2 equal to 0%

The compound listed as CC1(C)N=C(SCSC#N)SC1=CCl [Compound 3] shows pest or weed control at 33 µg/cm2 equal to 15%

The compound listed as CC1(C)N=C(SCSC#N)SC1=CSc1ccc(Cl)cc1 [Compound 1] shows pest or weed control at 33 µg/cm2 equal to 0%

---

Tested on: Soybean
assayOverview: Pre-emergent herbicidal test, Soybean
Format: in vivo
conditionDetails: Glycine max, 504 h; pre-emergence; 33 micrograms/cm^2; 3 weeks; read-out: Herbicidal Activity Pre-Emergence % Control Soybean
measurementName: plant injury at 33 µg/cm2 (%)
Answer with a number only, understood to be in %.

smilesrecord=C=C1SC(SCSC#N)=NC1(C)C studysystem=Soybean observedvalue=45
smilesrecord=CC1(C)N=C(SCSC#N)SC1=CSc1ccc(Cl)cc1 studysystem=Soybean observedvalue=0
smilesrecord=CC1(C)N=C(SCSC#N)SC1=C(Cl)Cl studysystem=Soybean observedvalue=0
smilesrecord=CCC1(CC)N=C(SCSC#N)SC1=CBr studysystem=Soybean observedvalue=0

The compound listed as `CC1(C)N=C(SCSC#N)SC1=CBr` shows plant injury at 33 µg/cm2 equal to 0

The compound listed as `C=C1SC(SCSC#N)=NC1(CC)CC` shows plant injury at 33 µg/cm2 equal to 30

The compound listed as `CC1(C)N=C(SCSC#N)SC1=CCl` shows plant injury at 33 µg/cm2 equal to 0

The compound listed as `C=C1SC(SCSC#N)=NC12CCCCC2` shows plant injury at 33 µg/cm2 equal to 0

---

System: Lambsquarter (Chenopodium album)
assayOverview: Post-emergent herbicidal test, Lambsquarter
Format: in vivo
conditionDetails: 504 h, post-emergence, 33 micrograms/cm^2, 3 weeks, read-out: Herbicidal Activity Post-Emergence % Control L'Qtr.
measurementName: pest or weed control at 33 µg/cm2 (%)
Answer with a number only, understood to be in %.

The molecule `CC1(C)N=C(SCSC#N)SC1=C(Cl)Cl` , tested on Lambsquarter (Chenopodium album), showed pest or weed control at 33 µg/cm2 of 40

---

Tested on: Crabgrass (Digitaria sanguinalis)
assayOverview: Post-emergent herbicidal test, Crabgrass
Format: in vivo
conditionDetails: 504 h, post-emergence, 33 micrograms/cm^2, 3 weeks
measurementName: pest or weed control at 33 µg/cm2 (%)
Answer with a number only, understood to be in %.

molecule="C=C1SC(SCSC#N)=NC1(C)C [Compound 7]" observedvalue=35
molecule="CCC1(CC)N=C(SCSC#N)SC1=CBr [Compound 5]" observedvalue=30

The molecule listed as CC1(C)N=C(SCSC#N)SC1=C(Cl)Cl [Compound 2] shows pest or weed control at 33 µg/cm2 equal to 25

The molecule listed as C=C1SC(SCSC#N)=NC12CCCCC2 [Compound 8] shows pest or weed control at 33 µg/cm2 equal to 20

---

Each entry below lists one item and its recorded pest or weed control at 33 µg/cm2 value.
Test system: Lambsquarter (Chenopodium album)
assayOverview: Post-emergent herbicidal test, Lambsquarter
Type: in vivo
conditionDetails: 504 h, post-emergence, 33 micrograms/cm^2, 3 weeks, read-out: Herbicidal Activity Post-Emergence % Control L'Qtr.
Please state the number and follow it with the unit.

Here is how some molecules turned out for pest or weed control at 33 µg/cm2.
molecule="CC1(C)N=C(SCSC#N)SC1=CBr [Compound 4]" observedvalue=0%
molecule="C=C1SC(SCSC#N)=NC1(C)C [Compound 7]" observedvalue=55%
molecule="CC1(C)N=C(SCSC#N)SC1=CCl [Compound 3]" observedvalue=0%
molecule="C=C1SC(SCSC#N)=NC12CCCCC2 [Compound 8]" observedvalue=40%
molecule="CCC1(CC)N=C(SCSC#N)SC1=CBr [Compound 5]" observedvalue=33%
molecule="CC1(C)N=C(SCSC#N)SC1=CSc1ccc(Cl)cc1 [Compound 1]" observedvalue=0%

The molecule listed as C=C1SC(SCSC#N)=NC1(CC)CC [Compound 6] shows pest or weed control at 33 µg/cm2 equal to 55%
